# TARGET_OF_ASSAY: HIV Env of isolate Q259.d2.17 (clade A) (HIV)
# TEST_PROTOCOL: cell-based or functional assay
The binders listed here are annotated with their IC80 (µg/ml) with constrains.
The response must be a number in µg/mL with no trailing unit.

Below: 2 binders and their reported IC80 (µg/ml) with constrains.
ePGDM13 (antibody, V domains shown) VH: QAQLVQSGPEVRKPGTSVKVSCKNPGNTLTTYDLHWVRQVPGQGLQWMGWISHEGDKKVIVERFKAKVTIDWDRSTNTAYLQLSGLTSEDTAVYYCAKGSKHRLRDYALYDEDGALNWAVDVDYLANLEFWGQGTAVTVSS VL: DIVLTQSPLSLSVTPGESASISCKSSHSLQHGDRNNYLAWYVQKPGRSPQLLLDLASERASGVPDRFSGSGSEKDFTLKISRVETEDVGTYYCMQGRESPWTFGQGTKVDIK	0.15
ePGDM5 (antibody, V domains shown) VH: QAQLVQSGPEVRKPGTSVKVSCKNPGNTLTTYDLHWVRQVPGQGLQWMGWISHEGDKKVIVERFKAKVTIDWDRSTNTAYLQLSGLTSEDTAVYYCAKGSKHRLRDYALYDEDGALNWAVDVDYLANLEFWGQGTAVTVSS VL: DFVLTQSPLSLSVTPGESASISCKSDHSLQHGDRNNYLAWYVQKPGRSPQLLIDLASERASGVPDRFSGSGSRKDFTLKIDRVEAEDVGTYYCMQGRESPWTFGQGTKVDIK	0.051

Continue with the binder presented below.
Recorded IC80 (µg/ml) with constrains of PGDM1400 (antibody, V domains shown) VH: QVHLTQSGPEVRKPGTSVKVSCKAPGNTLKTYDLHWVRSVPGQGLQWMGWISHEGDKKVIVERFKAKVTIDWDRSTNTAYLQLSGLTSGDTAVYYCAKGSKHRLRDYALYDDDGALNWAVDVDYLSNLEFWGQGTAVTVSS VL: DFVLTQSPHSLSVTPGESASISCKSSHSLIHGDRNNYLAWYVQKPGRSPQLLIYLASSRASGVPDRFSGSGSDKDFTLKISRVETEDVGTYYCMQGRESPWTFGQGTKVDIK , please.
0.271
